OUTCOME_MEASURE: logP

[[record]]
compound = "CC(CO)CC(F)(F)F (stereo not given)"
value_observed = 1.39

[[record]]
compound = "OCCCCCC(F)(F)F"
value_observed = 1.64

[[record]]
compound = "OCCCCC(F)(F)F"
value_observed = 1.15

[[record]]
compound = "CC(CCO)C(F)(F)F (stereo not given)"
value_observed = 1.37

[[record]]
compound = "CCC(O)CCC(F)(F)F (stereo not given)"
value_observed = 1.7

[[record]]
compound = "CC(C)(O)C(F)(F)F"
value_observed = 1.04


(A) OCCCC(F)(F)F
(B) CC(CCO)CC(F)(F)F (stereo not given)
(C) OCCC(F)(F)F
Sort low-to-high on logP, please. Present the labels in the sequence the task asks for.
C, A, B

Data provenance is the OPERA property sets (Mansouri et al. 2018).
